# System: Shigella sp.
# Experimental Details: Antimicrobial activity against Shigella spp. by broth microdilution method
# Format: functional
Measured Quantity: MIC50

[[record]]
compound = "CO/N=C(\\C(=O)N[C@@H]1C(=O)N2C(C(=O)O)=C(CSc3nc(=O)c(O)nn3C)CS[C@H]12)c1csc(N)n1 [CEFTRIAXONE]"
measured_quantity = "MIC50"
result = "0.03 µg/mL"

[[record]]
compound = "C[C@H]1COc2c(N3CCN(C)CC3)c(F)cc3c(=O)c(C(=O)O)cn1c23.C[C@H]1COc2c(N3CCN(C)CC3)c(F)cc3c(=O)c(C(=O)O)cn1c23.O [LEVOFLOXACIN]"
measured_quantity = "MIC50"
result = "0.03 µg/mL"

[[record]]
compound = "C[C@@H](O)[C@H]1C(=O)N2C(C(=O)O)=C(SCCNC=N)C[C@H]12 [IMIPENEM ANHYDROUS]"
measured_quantity = "MIC50"
result = "0.12 µg/mL"

[[record]]
compound = "CCO/N=C(\\C(=O)N[C@@H]1C(=O)N2C(C(=O)[O-])=C(Sc3nc(-c4cc[n+](C)cc4)cs3)CS[C@H]12)c1nsc(NP(=O)(O)O)n1 [CEFTAROLINE FOSAMIL]"
measured_quantity = "MIC50"
result = "0.03 µg/mL"


---

# Test system: Streptococcus pneumoniae
# Experimental Details: Antimicrobial activity against penicillin-resistant Streptococcus pneumoniae by broth microdilution method
# Format: functional
Measured Quantity: MIC90 (µg/mL)

[[record]]
compound = "CO/N=C(\\C(=O)N[C@@H]1C(=O)N2C(C(=O)O)=C(CSc3nc(=O)c(O)nn3C)CS[C@H]12)c1csc(N)n1"
target_desc = "Streptococcus pneumoniae"
units_text = "µg/mL"
readout_number = 8

[[record]]
compound = "C[C@@H](O)[C@H]1C(=O)N2C(C(=O)O)=C(SCCNC=N)C[C@H]12 [IMIPENEM ANHYDROUS]"
target_desc = "Streptococcus pneumoniae"
units_text = "µg/mL"
readout_number = 1

[[record]]
compound = "CCO/N=C(\\C(=O)N[C@@H]1C(=O)N2C(C(=O)[O-])=C(Sc3nc(-c4cc[n+](C)cc4)cs3)CS[C@H]12)c1nsc(NP(=O)(O)O)n1"
target_desc = "Streptococcus pneumoniae"
units_text = "µg/mL"
readout_number = 0.5

[[record]]
compound = "C[C@H]1COc2c(N3CCN(C)CC3)c(F)cc3c(=O)c(C(=O)O)cn1c23.C[C@H]1COc2c(N3CCN(C)CC3)c(F)cc3c(=O)c(C(=O)O)cn1c23.O"
target_desc = "Streptococcus pneumoniae"
units_text = "µg/mL"
readout_number = 1


---

# Test system: Salmonella sp.
# Experimental Details: Antimicrobial activity against Salmonella spp. by broth microdilution method
# Assay type: functional
Measured Quantity: MIC50 (µg/mL)

[[record]]
compound = "C[C@@H](O)[C@H]1C(=O)N2C(C(=O)O)=C(SCCNC=N)C[C@H]12 [IMIPENEM ANHYDROUS]"
measured_quantity = "MIC50"
readout_number = 0.25

[[record]]
compound = "C[C@H]1COc2c(N3CCN(C)CC3)c(F)cc3c(=O)c(C(=O)O)cn1c23.C[C@H]1COc2c(N3CCN(C)CC3)c(F)cc3c(=O)c(C(=O)O)cn1c23.O"
measured_quantity = "MIC50"
readout_number = 0.03

[[record]]
compound = "CCO/N=C(\\C(=O)N[C@@H]1C(=O)N2C(C(=O)[O-])=C(Sc3nc(-c4cc[n+](C)cc4)cs3)CS[C@H]12)c1nsc(NP(=O)(O)O)n1"
measured_quantity = "MIC50"
readout_number = 0.12

[[record]]
compound = "CO/N=C(\\C(=O)N[C@@H]1C(=O)N2C(C(=O)O)=C(CSc3nc(=O)c(O)nn3C)CS[C@H]12)c1csc(N)n1"
measured_quantity = "MIC50"
readout_number = 0.06

